Numbers sourced from paper PMC3486838.

biological target: human CYP11B2 (Homo sapiens); construct: expressed in transfected cells; host or cells: V79MZh cells; assay: Inhibition of CYP11B2 in V79 MZh cells expressing the enzyme; assay type: cell-based; conditions: CYP11B2 over CYP11B1
Sequence (P19099 25-503): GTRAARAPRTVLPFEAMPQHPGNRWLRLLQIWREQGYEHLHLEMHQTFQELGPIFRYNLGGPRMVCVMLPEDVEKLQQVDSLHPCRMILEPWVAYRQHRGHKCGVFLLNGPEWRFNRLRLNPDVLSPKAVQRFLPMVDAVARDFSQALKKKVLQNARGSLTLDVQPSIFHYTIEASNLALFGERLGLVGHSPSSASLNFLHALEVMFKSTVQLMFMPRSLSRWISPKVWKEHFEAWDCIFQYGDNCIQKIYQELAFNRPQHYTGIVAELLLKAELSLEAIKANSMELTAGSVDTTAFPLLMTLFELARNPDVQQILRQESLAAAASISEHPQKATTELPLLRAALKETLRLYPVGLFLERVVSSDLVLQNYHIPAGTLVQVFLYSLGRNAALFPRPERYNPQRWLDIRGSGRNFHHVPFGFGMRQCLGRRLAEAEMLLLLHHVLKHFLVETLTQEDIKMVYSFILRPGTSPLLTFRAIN
SF: selectivity factor = IC50 CYP11B1/IC50 CYP11B2 listing for selected molecules.
measuredMetric: SF: selectivity factor = IC50 CYP11B1/IC50 CYP11B2

molecule=O=C1CCC=C(c2cccnc2)CCC1 assayedsystem="human CYP11B2 (Homo sapiens)" observed=4
molecule="O=C1CC2C=C(c3cccnc3)CC2C1 (stereo not drawn)" assayedsystem="human CYP11B2 (Homo sapiens)" observed=8
molecule=O=C1CCCC(c2cccnc2)CCC1 assayedsystem="human CYP11B2 (Homo sapiens)" observed=3
